endpoint: logP

Past entries and their recorded results:
>>> reportedvalue("Cc1cc(C)c(NN(C=O)Cc2ccccc2)nn1")
0.61
>>> reportedvalue("Cc1cc(C)c(N/N=C\\c2ccccc2)nn1")
0.93
>>> reportedvalue("Cc1cc(O)c(O)nn1")
-0.3
>>> reportedvalue("Cc1[nH]n2cnnc2c(=O)c1N")
-0.52
>>> reportedvalue("Cc1cc(O)c(Cl)nn1")
-0.82

P = Cc1cc(OCC(=O)O)c(Cl)nn1
Q = Cc1cc(O)c(N)nn1
Q: Problem: Given the entries P and Q , determine which has the lower reported logP. Please identify the chosen entry by its label.
A: P

I = Cc1[nH]n2cnnc2c(=O)c1N=O
II = Cc1cc(C)c(N)nn1
III = Cc1[nH]n2cnnc2c(=O)c1Br
IV = Cc1cc(O)c(N2CCOCC2)nn1
V = CCOc1cc(=O)c2nncn2[nH]1
Q: Rank items: key logP, increasing. Write out the labels following the order that was asked for.
A: I, III, II, IV, V

1 = CC(=O)Nc1nnc(C)cc1O
2 = Cc1cc(S)c(N)nn1
Q: Which numeric logP is bigger, that of 1 or that of 2 ? Please identify the chosen entry by its label.
A: 2

P = Cc1cc(O)c(N(C)C)nn1
Q = Cc1cc(=O)c2nncn2[nH]1
Q: Which numeric logP is bigger, that of P or that of Q ? Please identify the chosen entry by its label.
A: P
(P: 0.24, Q: -0.21)

Entry source: the SangsterLogP compilation
